Where these numbers come from: patent US20210052580A1

Assay: physchem
Conditions: water, 20 °C, thermodynamic from solid

smiles-data	solubility (µg/mL)
Cc1c(-c2cnccn2)ssc1=S	3.1

----------
Test: physchem
Details: 2% simulated intestinal fluid, 20 °C, fassgf or other biorelevant, thermodynamic from solid
quantity-kind: solubility (µg/mL)

compound	unit-info	observed-value
Cc1c(-c2cnccn2)ssc1=S [Neat oltipraz]	µg/mL	15.8
